Values were extracted from the supplement of paper PMC6555819.

# Test system: LXRa homodimer (NR concentration 270 nM)
# assay: PBM binding z-score (relative to random genomic background probes); higher = stronger binding; sequences stand for … in GC…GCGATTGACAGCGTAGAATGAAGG
Quick reference: PBM binding z-score of the listed items.
No unit in the answer, please; the number alone is enough.

CGTTCAAGGTCAGAGAGGTCAGTGAATGCCGAGT	3.71

What does the data say about its PBM binding z-score? Entry: TCTATTAGTTGAAGGGCAAACGACGAGTCCGTTT 0.6

Can you look up the measured PBM binding z-score of TCGATTAGGTTAGTCGGGGCATTCAGCCAACATA for me? -0.073

Query (sequence): GGAATGAGGGCAAGTTGATAGCAGAGTTTGATGG ; field requested: PBM binding z-score -0.149

Look at this sequence and give its reported PBM binding z-score. CGTCCAAGGTCAATGCTAGGTCAGTCAAAGCATT 3

Sample AGAACGAGGTCAATGAGTTGATAGCACGGGTGGC — what was its PBM binding z-score? 0.873

* * *

# System: VDR:RXRa (NR concentration 270 nM, RXRa partner concentration 90 nM)
# assay: PBM binding z-score (relative to random genomic background probes); higher = stronger binding; sequences stand for … in GC…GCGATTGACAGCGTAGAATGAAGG
Listed here: items and their measured PBM binding z-score.

CGGACTAGGTCATTGACAGGACAGTGAATAGTAA	2
TCTATTAGTTGTAGGGCAACCGACGAGTCCGTTT	0.713

Here's the next entry for you.
Query (sequence): TCATATAGGTAAATGCTAGGTGGAAGTCCGATCT ; field requested: PBM binding z-score 0.687

* * *

This section presents sequences with their documented PBM binding z-score values.
# Test system: LXRa:RXRa (NR concentration 270 nM, RXRa partner concentration 90 nM)
# assay: PBM binding z-score (relative to random genomic background probes); higher = stronger binding; sequences stand for … in GC…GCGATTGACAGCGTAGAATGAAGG
// keep it numeric: no unit symbol after the value

TCTCGGAGGACACGAAAGGTCAGGGCTCGACATC	3.84

Using the record for ATCTCTAGGTAAGACTCAGTTCTGTGAAGAACGC , report its PBM binding z-score. 0.184

GET /values?readout=PBM binding z-score&item= CCTACTGGGCCATTCAGAGGTCATTGGTCATATG 4.22

Query: PBM binding z-score; subject: CCGACTGGGGCATACGGTTACCATAAGCCAGCCC -0.252

Form field: reported PBM binding z-score of CGAACGAGGGCATGAGATGATAGCAAATGCCGAT 0.173

* * *

# Tested on: PPARg:RXRa (NR concentration 180 nM, RXRa partner concentration 90 nM)
# assay: PBM binding z-score (relative to random genomic background probes); higher = stronger binding; sequences stand for … in GC…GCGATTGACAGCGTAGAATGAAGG
Here the recorded PBM binding z-score is given for each entry.

Known PBM binding z-score results, listed for orientation:
GCGACTGGGGCTTCAGCAGGTTACCATAACTTAA	-0.166
TCTACTAGGTCAACGATGGTCAGCTAATCTGCTA	6.19
CGAACTAGGTCAGAAGAGGACAGTGAAGGATGAT	5.79
CCTCGCAGGACAACAGGAGGTCAGAGCTGCCAGA	0.326
CAAACTAGGTCACAGAGTTCAAAGTCCGTGCGTA	9.65

For the sequence CCTGCTAGGTCATGGTCAGCTTATCTACAGTATG , what PBM binding z-score is on record? 2.2

I have this sequence here, TAGCCTAGGTCATGCGGGCCAGTTTAGTGTCGGC , and I need its recorded PBM binding z-score. 1.32

Request the reported PBM binding z-score associated with ACTTACGGGTCAACGAGTTTATAGCACGCGTATA 5.37

Returns the measured PBM binding z-score for the input sequence. Input: CAAACTACGTCACGAAAGGTCAAAGTCGAATGAC 3.01

Item under review: ACTAGCAGGCCAAGTTTGGGTCACACAAACAAAG . Reported PBM binding z-score? 0.563

* * *

# Test system: RARa homodimer (NR concentration 270 nM)
# assay: PBM binding z-score (relative to random genomic background probes); higher = stronger binding; sequences stand for … in GC…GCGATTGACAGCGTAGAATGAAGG
Classify as follows. Reported PBM binding z-score greater than or equal to 0.4: 1 (yes). Reported PBM binding z-score below: 0 (no).

Here's what some known entries look like.
TCTTGTAGATCAACAGGAGGTTAGGAAAGATCGA	0 (no)
CCTTACGGGTCACTGACAGGTTATTGCATTTGGA	1 (yes)
AGAACGAGGGCAATGAGTTGTTAGCACGGGTGGC	0 (no)
ATCGAAAGGTCGAAGGTAAGTATACCCACCCGAA	0 (no)

API: above_or_equal(metric=PBM binding z-score, cutoff=0.4) for item GATACAGTGTCAAGGCCAGAGTACGCGTATTGAT 0 (no)

Kindly determine if PBM binding z-score recorded for CCTTACGGGTCACTCGAGGTTATAGCATCGGAGT is above or exactly 0.4. 1 (yes)

Is the recorded value of PBM binding z-score equal to or greater than 0.4 for this sequence? ACTAGCAGGCCAAGGGTCACTCCAGATTAGTCCG 0 (no)

hey, is PBM binding z-score for this one >= 0.4? ATCTCTCGGTAAGACTCAGTTCAGTGAAGAACGC 1 (yes)

# check: PBM binding z-score of TCTAGTTGGTCACGGAGTTCACACACGACGGGTA is greater than or equal to 0.4 1 (yes)

Decide: is the reported value of PBM binding z-score for TATAGTTGGTCACGGAGGTCACACACGACGGGTA equal to or greater than 0.4? 1 (yes)

Reported PBM binding z-score reaches at least 0.4 for CCGACTGGGGCATAAGGTGACCATAAGCCAGCCC ? 0 (no)

In plain terms: is recorded PBM binding z-score at least 0.4 for TCGTGTAGGTTAGTCGGGGCATTCAGCCAACATA ? 1 (yes)

Reported PBM binding z-score reaches at least 0.4 for TCTCGGAGGACACGAAGGTTAGAGCTTTCCAGAG ? 0 (no)

Determine whether this sequence has PBM binding z-score no lower than 0.4: CCTACTGGGCAAAGGTCATTGATCAGTCAAAGCA 1 (yes)

Given TCATATAGGTAATACAGGTGAAAGACGGCATCTA , state whether its PBM binding z-score is at least 0.4. 1 (yes)

Could you tell me if the measured PBM binding z-score of CTCGAAAGGTCGGGTGAGGTGAGTATACGGATAA reaches 0.4 or more? 1 (yes)

Assess whether reported PBM binding z-score for CAAACTAGGTCTCGAAAGGTCAAAGTCGAATGAC sits at 0.4 or higher. 1 (yes)

Test whether the sequence GCGACTGGGGCAAAGCAGGTTAGCATAAGGTTGG records PBM binding z-score of 0.4 or higher. 0 (no)

State whether the measured PBM binding z-score reaches 0.4, counting equality as reaching it, for AGAATGAGGTTGAGATCAGGGAAACAGAATACAT 0 (no)

Does the sequence ATACCAAGGTGATCGTGAGGTCGTCGATACTAAC have recorded PBM binding z-score that is 0.4 or more? 1 (yes)

Please check the record CTCGAAAGGTCGTGCTCAGGTCAGTATACCAAAC and state if its PBM binding z-score is at or above 0.4. 1 (yes)

Hi, just wondering whether AGTCAAAGTACATCTAGGTAACGTAAGATATGCT shows PBM binding z-score of 0.4 or higher. 0 (no)

Decide: is the reported value of PBM binding z-score for CCTGACGGGTCACGAGGTTATAGCACGACGAGCG equal to or greater than 0.4? 1 (yes)

State whether the measured PBM binding z-score reaches 0.4, counting equality as reaching it, for CCTCACGGGTCACTCCAGGTTATAGCATCGGAGT 1 (yes)

Quick check, PBM binding z-score >= 0.4? TTACCAAGGTGAAGGTCGTTGACCCCTCTGTAGA 0 (no)

Answer whether PBM binding z-score of TAGCCTAGGTCATTGGGCCAGTATGGTACGCATC is greater than or equal to 0.4. 0 (no)

API: above_or_equal(metric=PBM binding z-score, cutoff=0.4) for item CGAACTAGGTCATCCAGGACAGTGACTACATTGA 1 (yes)

Entry GGAACGTGGGCATTCGAGTTGATAGCATGGCGAT : is its PBM binding z-score no less than 0.4? 0 (no)

* * *

# Test system: PPARa:RXRa (NR concentration 270 nM, RXRa partner concentration 90 nM)
# assay: PBM binding z-score (relative to random genomic background probes); higher = stronger binding; sequences stand for … in GC…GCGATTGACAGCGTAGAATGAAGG
measurement.type: PBM binding z-score
A bare number is all that is needed in reply.

For TCAATTAGTTGAAGGGCAACCGACGAGTCCGTTT , what is its reported PBM binding z-score? 0.684

Using the record for CCTGCTAGGTCATGGTTAGCTAATCTACAGTATG , report its PBM binding z-score. 3.76

May I ask what PBM binding z-score has been recorded for TCATATAGGCAAAGGTGAAAGTCGAACGATATGA ? 2.98
